test system: HT29 colon; assay: NCI-60 one-dose screen, 48 h (100 = growth as untreated, 0 = no growth, -100 = all killed); settings: 10 µM unless noted
About 83,000 compounds went through this panel and 20% of them were active in at least one assay; those are over-represented in the sample as a whole. Calls of active or inactive are those of the source. Rule for the calls: active = growth percent below 10; inactive = the rest.
growth values by entry

cpd smiles | growth
O=[N+]([O-])c1cc(I)cc([N+](=O)[O-])c1 | 109% (inactive)
Clc1cccc(N2COOC3(OOC2)C2CC4CC(C2)CC3C4)c1 | 85.2% (inactive)
CC(=O)OCC1O[C@@H]([S-])C(OC(C)=O)[C@H](OC(C)=O)[C@@H]1OC(C)=O.[Au+].c1ccc(CN2[CH-]N(Cc3ccccc3)C(c3ccccc3)=C2c2ccccc2)cc1 | 50.3% (inactive)
CCOC(=O)[C@@H](C)C[C@H](Cc1ccccc1)NC(=O)c1csc([C@@H](C[C@H](C(C)C)N(C)C(=O)[C@@H](NC(=O)[C@H]2CCCCN2C)C(C)(C)C)OC(C)=O)n1 | 0.339% (active)
Nc1ccc(-c2nc3cc(F)ccc3[se]2)cc1F | 61% (inactive)
